Field: pIC50. Provide a value for each of the compounds that follow.
// pIC50 here means minus log10 of the molar concentration (mol/L)

input: Query for UniProt P07374: what pIC50 does the record show for O=C1CC[C@@H](C(=O)O)N1 [pGlu, pyroglutamic acid] ?
output: 5.74

input: UniProt P07374 / pIC50 / CC(=O)NO [AHA, acetohydroxamic acid, reference compound] : value?
output: 5.41

###

- target-system: phosphodiesterase-5A1 (PDE5A1) (Homo sapiens, UniProt O76074)
readout-type: pIC50
Please treat pIC50 as minus the base-10 logarithm of the molar concentration.

input: Look at this molecule and give its reported pIC50. O=C1CC[C@@H](C(=O)O)N1 [pGlu, pyroglutamic acid]
output: 5.28

Where these numbers come from: paper PMC6770154
